System: Ureaplasma species
Test: microbe, parasite or virus in culture
Assay type: cell-based, Ureaplasma urealyticum, Ureaplasma parvum
Conditions: Ureaplasma
Each item that follows carries a reported MIC50.
State the answer as a number, implicitly in µg/mL.

### Prompt Reported MIC50 for C[C@H]1COc2c(N3CCN(C)CC3)c(F)cc3c(=O)c(C(=O)O)cn1c23 [Levofloxacin] : what is it?
### Response 1

### Prompt Reported MIC50 for C[C@@H]1CN2c3c(cc4c(N5C(=O)OC[C@@H]5C)noc4c3F)CC3(C(=O)NC(=O)NC3=O)[C@H]2[C@H](C)O1 [Compound 1] : what is it?
### Response 0.5

### Prompt Reported MIC50 for C[C@H]1c2cccc(O)c2C(=O)C2=C(O)[C@]3(O)C(=O)C(C(N)=O)=C(O)[C@@H](N(C)C)[C@@H]3[C@@H](O)[C@@H]21 [Doxycycline] : what is it?
### Response 0.125

We now examine a further compound.
### Prompt Reported MIC50 for CC[C@H]1OC(=O)[C@H](C)[C@@H](O[C@H]2C[C@@](C)(OC)[C@@H](O)[C@H](C)O2)[C@H](C)[C@@H](O[C@@H]2O[C@H](C)C[C@H](N(C)C)[C@H]2O)[C@](C)(O)C[C@@H](C)CN(C)[C@H](C)[C@@H](O)[C@]1(C)O [Azithromycin] : what is it?
### Response 2

---

Tested on: Mycoplasma pneumoniae
Experiment: Broth microdilution MIC assay (CLSI M43-A), M. pneumoniae
Assay type: cell-based
Conditions: M. pneumoniae isolate 53706; read-out: MIC
metric: MIC (µg/mL)
State the answer as a number, implicitly in µg/mL.

### Prompt Reported MIC for "C[C@@H]1CN2c3c(cc4c(N5C(=O)OC[C@@H]5C)noc4c3F)CC3(C(=O)NC(=O)NC3=O)[C@H]2[C@H](C)O1" : what is it?
### Response 0.5

Others:
### Prompt Reported MIC for "C[C@H]1COc2c(N3CCN(C)CC3)c(F)cc3c(=O)c(C(=O)O)cn1c23" : what is it?
### Response 0.5

### Prompt Reported MIC for "C[C@H]1c2cccc(O)c2C(=O)C2=C(O)[C@]3(O)C(=O)C(C(N)=O)=C(O)[C@@H](N(C)C)[C@@H]3[C@@H](O)[C@@H]21" : what is it?
### Response 0.25

---

Tested on: Mycoplasma pneumoniae
Assay: Broth microdilution MIC assay (CLSI M43-A), M. pneumoniae
Type: cell-based
Details: M. pneumoniae isolate 59598; read-out: MIC
metric: MIC (µg/mL)
State the answer as a number, implicitly in µg/mL.

### Prompt Reported MIC for "C[C@H]1c2cccc(O)c2C(=O)C2=C(O)[C@]3(O)C(=O)C(C(N)=O)=C(O)[C@@H](N(C)C)[C@@H]3[C@@H](O)[C@@H]21" : what is it?
### Response 0.25

### Prompt Reported MIC for "C[C@H]1COc2c(N3CCN(C)CC3)c(F)cc3c(=O)c(C(=O)O)cn1c23" : what is it?
### Response 1

We now examine a further molecule.
### Prompt Reported MIC for "C[C@@H]1CN2c3c(cc4c(N5C(=O)OC[C@@H]5C)noc4c3F)CC3(C(=O)NC(=O)NC3=O)[C@H]2[C@H](C)O1" : what is it?
### Response 0.5

---

System: Mycoplasma hominis
Assay: microbe, parasite or virus in culture
Type: cell-based
Conditions: Metamycoplasma hominis
Each item that follows carries a reported MIC90.
State the answer as a number, implicitly in µg/mL.

### Prompt Please provide the recorded MIC90 for C[C@@H]1CN2c3c(cc4c(N5C(=O)OC[C@@H]5C)noc4c3F)CC3(C(=O)NC(=O)NC3=O)[C@H]2[C@H](C)O1 [Compound 1] , tested on Mycoplasma hominis.
### Response 4

### Prompt Please provide the recorded MIC90 for C[C@H]1COc2c(N3CCN(C)CC3)c(F)cc3c(=O)c(C(=O)O)cn1c23 [Levofloxacin] , tested on Mycoplasma hominis.
### Response 0.25

### Prompt Please provide the recorded MIC90 for C[C@H]1c2cccc(O)c2C(=O)C2=C(O)[C@]3(O)C(=O)C(C(N)=O)=C(O)[C@@H](N(C)C)[C@@H]3[C@@H](O)[C@@H]21 [Doxycycline] , tested on Mycoplasma hominis.
### Response 4

Others:
### Prompt Please provide the recorded MIC90 for CC[C@H]1OC(=O)[C@H](C)[C@@H](O[C@H]2C[C@@](C)(OC)[C@@H](O)[C@H](C)O2)[C@H](C)[C@@H](O[C@@H]2O[C@H](C)C[C@H](N(C)C)[C@H]2O)[C@](C)(O)C[C@@H](C)CN(C)[C@H](C)[C@@H](O)[C@]1(C)O [Azithromycin] , tested on Mycoplasma hominis.
### Response 4

---

Test system: Mycoplasma pneumoniae
Test: Broth microdilution MIC assay (CLSI M43-A), M. pneumoniae
Type: cell-based
Conditions: M. pneumoniae isolate 55246; read-out: MIC
metric: MIC (µg/mL)
State the answer as a number, implicitly in µg/mL.

### Prompt Reported MIC for "C[C@H]1c2cccc(O)c2C(=O)C2=C(O)[C@]3(O)C(=O)C(C(N)=O)=C(O)[C@@H](N(C)C)[C@@H]3[C@@H](O)[C@@H]21" : what is it?
### Response 0.25

### Prompt Reported MIC for "C[C@@H]1CN2c3c(cc4c(N5C(=O)OC[C@@H]5C)noc4c3F)CC3(C(=O)NC(=O)NC3=O)[C@H]2[C@H](C)O1" : what is it?
### Response 1

We now examine a further molecule.
### Prompt Reported MIC for "C[C@H]1COc2c(N3CCN(C)CC3)c(F)cc3c(=O)c(C(=O)O)cn1c23" : what is it?
### Response 1

---

Test system: Ureaplasma species
Experiment: microbe, parasite or virus in culture
Type: cell-based, Ureaplasma urealyticum, Ureaplasma parvum
Details: Ureaplasma
metric: MIC90 (mg/L)
State the answer as a number, implicitly in mg/L.

Before answering, review these 3 worked examples.
### Prompt Reported MIC90 for "C[C@@H]1CN2c3c(cc4c(N5C(=O)OC[C@@H]5C)noc4c3F)CC3(C(=O)NC(=O)NC3=O)[C@H]2[C@H](C)O1" : what is it?
### Response 1

### Prompt Reported MIC90 for "C[C@H]1COc2c(N3CCN(C)CC3)c(F)cc3c(=O)c(C(=O)O)cn1c23" : what is it?
### Response 8

### Prompt Reported MIC90 for "CC[C@H]1OC(=O)[C@H](C)[C@@H](O[C@H]2C[C@@](C)(OC)[C@@H](O)[C@H](C)O2)[C@H](C)[C@@H](O[C@@H]2O[C@H](C)C[C@H](N(C)C)[C@H]2O)[C@](C)(O)C[C@@H](C)CN(C)[C@H](C)[C@@H](O)[C@]1(C)O" : what is it?
### Response 4

We now examine a further molecule.
### Prompt Reported MIC90 for "C[C@H]1c2cccc(O)c2C(=O)C2=C(O)[C@]3(O)C(=O)C(C(N)=O)=C(O)[C@@H](N(C)C)[C@@H]3[C@@H](O)[C@@H]21" : what is it?
### Response 8
